Assay: qHTS of pediatric cancer cell lines to identify multiple opportunities for drug repurposing: Confirmatory screen for A673 cells (AID 1347110);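 further: cells exposed to compound for 48 h before the viability read; nearly all actives have a fitted effect of over 65% in size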
Details: A673 Ewing sarcoma cell viability; series mostly up to 45.9 µM
Inconclusive results are not listed. Active and inactive are the calls of the source. The call rests on the fitted dose curve; in most records, active means well fitted cell-killing curve with a large enough effect; inconclusive means small, poorly fitted or top-dose-only effect; inactive means flat fitted curve, though single readings scatter.
Field 'call' accepts active, inactive

input_smiles | class_label
C[C@H]1O[C@@H](O[C@H]2[C@@H](O)C[C@H](O[C@H]3[C@@H](O)C[C@H](O[C@H]4CC[C@@]5(C)[C@H](CC[C@@H]6[C@@H]5CC[C@]5(C)[C@@H](C7=CC(=O)OC7)CC[C@]65O)C4)O[C@@H]3C)O[C@@H]2C)C[C@H](O)[C@@H]1O | active
C[C@@H]1[C@@H](C(=O)C[C@H]2O[C@@H]3O[C@]4(C)CC[C@@H]5[C@H](C)CC[C@@H]([C@H]2C)[C@@]35OO4)O[C@@H]2O[C@]3(C)CC[C@H]4[C@H](C)CC[C@@H]1[C@@]24OO3 | active
COC[C@@H](NC(C)=O)C(=O)NCc1ccccc1 | inactive
N[C@@H](Cc1ccc(N(CCCl)CCCl)cc1)C(=O)O | active

Query compound follows.
Which result was noted for this compound in the test: `C=C(C)[C@H]1Cc2c(ccc3c2O[C@@H]2COc4cc(OC)c(OC)cc4[C@@H]2C3=O)O1`
active

====

Assay: Quantitative High-Throughput drug screen in 47 multiple myeloma cell lines against the NCATS MIPE library collection: RPMI8226_ATCC cell viability assay (AID 1919871); further: nearly all actives have a fitted effect of over 30% in size; further: potency means the concentration at half of the fitted maximal effect
Settings: RPMI8226 myeloma viability, CellTiter-Glo ATP luminescence, 48 h; series mostly up to 45.8 µM
Results filed as inconclusive are left out. Activity calls are given as the source filed them. Calls come from the whole dose curve; as a rule, active = well fitted cell-killing curve with a large enough effect; inconclusive = small, poorly fitted or top-dose-only effect, or effect the other way; inactive = no such curve, though single readings can be large or run the other way.
reported_metric: Potency

compound | observed
CN(C)CCN(C)CCc1ccc(Cl)c(Cl)c1 | inactive
NCC1(CC(=O)O)CCCCC1 | inactive
CN1CCN(C(=O)O[C@H]2c3nccnc3C(=O)N2c2ccc(Cl)cn2)CC1 | inactive
COc1ccc(C(=O)c2c(C)n(CCN3CCOCC3)c3ccccc23)cc1 | inactive
COC[C@@H](NC(C)=O)C(=O)NCc1ccccc1 | inactive
CNCC(O)c1ccc(O)cc1 (centres undefined) | inactive

May I ask what Potency has been recorded for C[C@@H]1[C@@H](CC(C[C@H]2O[C@@H]3O[C@]4(C)CC[C@@H]5[C@H](C)CC[C@@H]([C@H]2C)[C@@]35OO4)C[S+](=O)([O-])c2ccc(COC(=O)N(C)C)cc2)O[C@@H]2O[C@]3(C)CC[C@H]4[C@H](C)CC[C@@H]1[C@@]24OO3 (some centres undefined) ?
0.296 µM (active)

May I ask what Potency has been recorded for `Cn1cc(C2=C(c3cn(C4CCN(Cc5ccccn5)CC4)c4ccccc34)C(=O)NC2=O)c2ccccc21` ?
inactive

May I ask what Potency has been recorded for `Cc1cc(SCc2sc(-c3ccc(C(F)(F)F)c(F)c3)nc2C)ccc1OCC(=O)O` ?
18.7 µM (active)

====

Assay: Quantitative High-Throughput drug screen in 47 multiple myeloma cell lines against the NCATS MIPE library collection: PE2_PLB cell viability assay (AID 1919869); further: nearly all actives have a fitted effect of over 35% in size
Details: PE2_PLB myeloma cells viability, ATP luminescence, 48 h; series mostly up to 45.8 µM
Records with an inconclusive call do not appear. The source made the active and inactive calls. Calls come from the whole dose curve; as a rule, active = well fitted cell-killing curve with a large enough effect; inconclusive = small, poorly fitted or top-dose-only effect, or effect the other way; inactive = no such curve, though single readings can be large or run the other way.
Field 'call' accepts Y (active), N (inactive)

Example results:
input_smiles | class_label
N[C@@H](Cc1ccc(N(CCCl)CCCl)cc1)C(=O)O | Y
Cc1cccc(C)c1NC(=O)CN1CCCC1=O | N
Cn1cc(C2=C(c3cn(C4CCN(Cc5ccccn5)CC4)c4ccccc34)C(=O)NC2=O)c2ccccc21 | Y
NCC1(CC(=O)O)CCCCC1 | N

Query compound follows.
Which result was noted for this compound in the test: `CC1=C2C[C@@H]3[C@@H](CC=C4C[C@@H](O)CC[C@@]43C)[C@@H]2CC[C@]12O[C@H]1C[C@H](C)CN[C@H]1[C@H]2C`
N

====

Assay: qHTS of pediatric cancer cell lines to identify multiple opportunities for drug repurposing: Primary screen for OHS-50 cells (AID 1347103); further: nearly all actives have a fitted effect of over 40% in size; further: potency means the concentration at half of the fitted maximal effect
Details: OHS-50 osteosarcoma viability, CellTiter-Glo luminescence, 48 h; series mostly up to 57.3 µM
Results filed as inconclusive are left out. Active and inactive are the calls of the source. Calls follow the shape of the dose curve; as a rule, active = well fitted cell-killing curve with a large enough effect; inconclusive = small, poorly fitted or top-dose-only effect; inactive = no such curve, though single readings can be large or run the other way.
reported_metric: Potency

compound | observed
C[C@H]1O[C@@H](O[C@H]2[C@@H](O)C[C@H](O[C@H]3[C@@H](O)C[C@H](O[C@H]4CC[C@@]5(C)[C@H](CC[C@@H]6[C@@H]5CC[C@]5(C)[C@@H](C7=CC(=O)OC7)CC[C@]65O)C4)O[C@@H]3C)O[C@@H]2C)C[C@H](O)[C@@H]1O | 11 nM (active)
C[C@@H]1[C@@H](CC(C[C@H]2O[C@@H]3O[C@]4(C)CC[C@@H]5[C@H](C)CC[C@@H]([C@H]2C)[C@@]35OO4)C[S+](=O)([O-])c2ccc(COC(=O)N(C)C)cc2)O[C@@H]2O[C@]3(C)CC[C@H]4[C@H](C)CC[C@@H]1[C@@]24OO3 (some centres undefined) | 306 nM (active)
C[C@]12CC[C@H]3[C@@H](CCC4=CC(=O)CC[C@@H]43)[C@@H]1CC[C@@H]2OC(=O)CCc1ccccc1 | inactive
Nc1ccncc1 | inactive

====

Assay: NFAT Signaling Pathway (AID 444);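 further: carbachol stimulus at about its EC50 of 1 µM final; on the % scale 0 is the no-effect control and ±100 the full control effect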
Conditions: Jurkat NFAT-bla M1, carbachol, beta-lactamase ratio, 5 h; at 38 µM (top of the series)
Results filed as inconclusive are left out.
reported_metric: activity change, negative = inhibition (%)
Kindly answer with a numeric value in %, unit omitted.

input_smiles | activity change, negative = inhibition, %
NCC1(CC(=O)O)CCCCC1 | 3.24
CCn1cc(C(=O)O)c(=O)c2ccc(C)nc21 | 12.2
Nc1ccncc1 | -3.97
Cc1cccc(C)c1NC1=NCCCS1 | -14.8
Cc1ccc(S(=O)(=O)N[C@@H](CCCCN)C(=O)CCl)cc1 | -22.6
N#CC(C#N)=Cc1ccc(O)c(O)c1 | -13.6
CCCN1CCC[C@@H]2Cc3nc(N)ncc3C[C@H]21 | -3.63

Please look at the following compound next.
May I ask what activity change, negative = inhibition has been recorded for `N[C@@H]1C[C@H]1c1ccccc1` ?
-3.2

====

Test: Cell Viability - LYMP1-002 - Assay at 24 hr (AID 993); further: potency means the concentration at half of the fitted maximal effect
Conditions: LYMP1-002 lymphoblastoid cells viability; series mostly up to 92.2 µM
Calls of active or inactive are those of the source. Calls follow the shape of the dose curve; as a rule, active = well fitted cell-killing curve with a large enough effect; inconclusive = small, poorly fitted or top-dose-only effect; inactive = flat fitted curve, though single readings scatter.
reported_metric: Potency

Illustrative cases are given below, each with its answer.
compound | Potency
CCCC(C)(COC(N)=O)COC(=O)NC(C)C (centres undefined) | inactive
N[C@@H](Cc1ccc(N(CCCl)CCCl)cc1)C(=O)O | inactive
CC(=O)Oc1ccccc1C(=O)Nc1ncc([N+](=O)[O-])s1 | 39.8 µM (active)
c1ccc2c(c1)Nc1ccccc1S2 | inactive
Oc1cccc2cccnc12 | 25.1 µM (active)

May I ask what Potency has been recorded for `OCCOc1ccccc1` ?
inactive

May I ask what Potency has been recorded for `CCOP(=S)(OCC)Oc1cc(C)nc(C(C)C)n1` ?
inactive

May I ask what Potency has been recorded for `Oc1ccccc1-c1ccccc1` ?
inactive

May I ask what Potency has been recorded for CNCC(O)c1ccc(O)cc1 (centres undefined) ?
inactive

====

Test: qHTS for identification of novel therapeutic agents for treatment of microphthalmiaassociated transcription factor (MiT) renal cell carcinoma (RCC) (AID 1963991);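 further: curves scaled with 100% = DMSO viability and 0% = empty wells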
Conditions: TFE3-RCC viability, CellTiter-Glo, 48 h; measured here: UOK124 Z-AUC; stronger effect = lower value
Inconclusive results are not listed.
Decision: z-score beneath 0.5 gives t; z-score meeting or exceeding 0.5 gives f.

compound | class_label
COc1ccc2c(c1OC)CN1CCc3cc4c(cc3C1C2)OCO4 (configuration not stated) | f

z-score under 0.5? Item: CCCC(C)(COC(N)=O)COC(=O)NC(C)C (configuration not stated)
f

z-score under 0.5? Item: `COc1ccc(C(=O)c2c(C)n(CCN3CCOCC3)c3ccccc23)cc1`
f

z-score under 0.5? Item: `NCC1(CC(=O)O)CCCCC1`
f

z-score under 0.5? Item: `Cc1cccc(C)c1NC(=O)CN1CCCC1=O`
t

z-score under 0.5? Item: `O=C1CC[C@@]2(O)[C@H]3Cc4ccc(O)c5c4[C@@]2(CCN3CC2CC2)[C@H]1O5`
t

z-score under 0.5? Item: `CN(C)CCc1ccc(O)cc1`
t

====

Tested on: PC15
Test: qHTS profiling for inhibitors of Plasmodium falciparum proliferation (AID 504749); further: nearly all actives have a fitted effect of over 60% in size
Details: P. falciparum in erythrocytes, SYBR Green DNA, 72 h; series mostly up to 28.7 µM
Records with an inconclusive call do not appear. Activity calls are given as the source filed them. Calls come from the whole dose curve; as a rule, active = well fitted inhibition curve with a large enough effect; inconclusive = small, poorly fitted or top-dose-only effect; inactive = flat fitted curve, though single readings scatter.
Field 'call' accepts active, inactive

Example results:
compound | class_label
Clc1cccc(N2CCNCC2)c1 | inactive
C[C@]12C/C(=C/O)C(=O)C[C@@H]1CC[C@@H]1[C@@H]2CC[C@@]2(C)[C@H]1CC[C@]2(C)O | inactive
Oc1cc(Cl)ccc1Oc1ccc(Cl)cc1Cl | active
Cc1ccc(S(=O)(=O)N[C@@H](CCCCN)C(=O)CCl)cc1 | inactive
Clc1ccc(COC(Cn2ccnc2)c2ccc(Cl)cc2Cl)cc1 (stereo unspecified) | active

Which result was noted for this compound in the test: `CCOP(=S)(OCC)Oc1cc(C)nc(C(C)C)n1`
inactive

Which result was noted for this compound in the test: `COc1ccc(C(=O)c2c(C)n(CCN3CCOCC3)c3ccccc23)cc1`
inactive

Which result was noted for this compound in the test: `OCCOc1ccccc1`
inactive

Which result was noted for this compound in the test: CC(C)CC(N(C)C)C1(c2ccc(Cl)cc2)CCC1 (stereo unspecified)
inactive

Which result was noted for this compound in the test: `NN=C(N)N`
inactive

Which result was noted for this compound in the test: CC1NCCOC1c1ccccc1 (stereo unspecified)
inactive
